molecular target: htau40 (Homo sapiens, UniProt P10636); assay: Biacore X100 SPR of anti-tau mAbs on immobilised htau40; type: binding; conditions: mAb, Table 27, immobilised hT40
Sequence (P10636 1-441 isoform P10636-8): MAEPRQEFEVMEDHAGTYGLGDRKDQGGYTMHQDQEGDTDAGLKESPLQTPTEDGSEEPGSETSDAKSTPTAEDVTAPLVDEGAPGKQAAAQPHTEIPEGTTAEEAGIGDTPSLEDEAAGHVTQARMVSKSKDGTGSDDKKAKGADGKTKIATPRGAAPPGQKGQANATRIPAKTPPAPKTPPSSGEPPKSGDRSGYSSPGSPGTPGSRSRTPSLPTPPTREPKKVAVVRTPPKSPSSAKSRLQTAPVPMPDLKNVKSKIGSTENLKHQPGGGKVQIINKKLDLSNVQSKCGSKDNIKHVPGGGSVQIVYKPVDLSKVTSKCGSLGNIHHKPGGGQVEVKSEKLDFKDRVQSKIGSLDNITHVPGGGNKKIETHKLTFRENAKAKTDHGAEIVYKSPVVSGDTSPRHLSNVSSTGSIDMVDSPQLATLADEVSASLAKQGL
endpoint name: ka (M⁻¹ s⁻¹)
Write down the numeric answer in M⁻¹ s⁻¹ and omit the unit.

Example results:
molecule: CA4: anti-tau clone, SEQ ID NO: 368 (protein, CA4 amino acid sequence) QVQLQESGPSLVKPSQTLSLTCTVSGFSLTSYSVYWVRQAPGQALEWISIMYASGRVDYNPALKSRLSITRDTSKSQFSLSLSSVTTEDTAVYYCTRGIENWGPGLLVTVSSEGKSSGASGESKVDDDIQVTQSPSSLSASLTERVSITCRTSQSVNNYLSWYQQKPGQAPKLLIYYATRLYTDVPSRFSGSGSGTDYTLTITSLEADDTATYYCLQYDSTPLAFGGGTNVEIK
ka, M⁻¹ s⁻¹: 1.02e+06

molecule: S1D12: anti-tau clone from immunised sheep, SEQ ID NO: 32 (protein, S1D12 amino acid sequence) scFv: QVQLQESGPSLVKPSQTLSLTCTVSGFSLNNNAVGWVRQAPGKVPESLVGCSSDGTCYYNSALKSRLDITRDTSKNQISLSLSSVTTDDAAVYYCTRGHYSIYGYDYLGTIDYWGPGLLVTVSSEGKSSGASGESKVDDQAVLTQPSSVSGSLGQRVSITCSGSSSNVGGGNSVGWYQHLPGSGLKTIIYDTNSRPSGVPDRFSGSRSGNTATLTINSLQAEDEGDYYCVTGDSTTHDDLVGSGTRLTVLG
ka, M⁻¹ s⁻¹: 405800

molecule: NS2A1: anti-tau clone, SEQ ID NO: 220 (protein, NS2A1 amino acid sequence) scFv: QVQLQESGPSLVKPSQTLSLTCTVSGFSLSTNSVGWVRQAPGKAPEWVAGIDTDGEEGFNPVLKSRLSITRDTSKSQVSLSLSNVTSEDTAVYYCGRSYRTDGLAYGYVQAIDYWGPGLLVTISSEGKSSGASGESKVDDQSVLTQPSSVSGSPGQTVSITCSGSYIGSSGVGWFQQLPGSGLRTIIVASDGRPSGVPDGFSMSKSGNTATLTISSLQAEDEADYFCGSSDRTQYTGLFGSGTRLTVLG
ka, M⁻¹ s⁻¹: 893700

molecule: S1G2: anti-tau clone, SEQ ID NO: 81 (protein, S1G2 amino acid sequence) scFv: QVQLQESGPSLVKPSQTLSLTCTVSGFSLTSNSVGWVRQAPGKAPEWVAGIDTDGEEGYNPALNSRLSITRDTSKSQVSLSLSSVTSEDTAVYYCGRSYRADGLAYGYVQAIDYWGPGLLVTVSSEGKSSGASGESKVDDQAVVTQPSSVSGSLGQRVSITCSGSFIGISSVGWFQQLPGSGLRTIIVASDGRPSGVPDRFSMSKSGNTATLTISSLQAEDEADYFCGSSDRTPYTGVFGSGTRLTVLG
ka, M⁻¹ s⁻¹: 339800

Proceeding to the next molecule to report its ka.
Q. Determine from records and report ka for CC7: anti-tau clone, SEQ ID NO: 365 (protein, CC7 amino acid sequence) scFv: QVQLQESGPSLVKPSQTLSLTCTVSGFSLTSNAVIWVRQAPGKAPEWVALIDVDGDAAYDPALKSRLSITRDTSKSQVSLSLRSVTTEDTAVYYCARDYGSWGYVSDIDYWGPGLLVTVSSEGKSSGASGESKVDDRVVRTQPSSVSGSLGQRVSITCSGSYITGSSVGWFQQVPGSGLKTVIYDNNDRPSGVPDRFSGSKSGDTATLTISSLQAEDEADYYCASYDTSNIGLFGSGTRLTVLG
A. 4.576e+06

Taken from patent US12624096B2.
